- test target: Env of HIV-1 strain 3365.v2.c20 (HIV-1)
- assay remarks: cell-based or functional assay
Listing of entries alongside the reported neutralization IC50.

Past entries and their recorded results:
γ22κ18 (antibody, V domains shown) VH: QIHLVQSGTEVKKPGSSVTVSCKAYGVNTFGLYAVNWVRQAPGQSLEYIGQIWRWKSSASHHFRGRVLISAVDLTGPSPPISSLEIKNLTSDDTAVYFCTTTSTYDKWSGLHHDGVMAFSSWGQGTLISVSA VL: DIQMTQSPSTLSASVGDTVRISCRASQSITGGWLAWYHQRPGKAPRLLIYRGSRLLGGVPSRFSGSAAGADFTLTIANLQAEDFGTFYCQQYDTYPGTFGQGTKVEVKR; > 15 µg/mL
γ20κ3 (antibody, V domains shown) VH: QIHLVQSGTEVKKPGSSVAVSCKAYGVNTFGLYAVNWVRQAPGQSLEYIGQIWRWKSSASHDFRGRVIISAVDLTGSSPPISSLEIKNLTSDDTAVYFCTATSTPDYWSGLHHDGVMAFSSWGQGTLISVSA VL: DIQMTQSPSTLSASIGDTVRISCRASQSITGNWLAWYHQRPGKAPRLLIYRGSRLLGGVPSRFSGSAAGTDFTLTIANLQAEDFGTFYCQQYDTYPGTFGQGTKVEVKR; > 15 µg/mL
γ59κ18 (antibody, V domains shown) VH: QIHLVQSGTEVKKPGSSVTVSCKAYGVNTFGLYAVNWVRQAPGQGLEYIGQIWRWKSSASHHFRGRVLISAVDLTGSSPPISSLEIKNVTSDDTAVYFCTTTSTYDEWSDLHHDGVMAFSSWGQGTLISVSA VL: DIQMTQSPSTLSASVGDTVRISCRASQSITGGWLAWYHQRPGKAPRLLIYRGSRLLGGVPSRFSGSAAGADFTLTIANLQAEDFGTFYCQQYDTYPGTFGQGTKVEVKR; > 15 µg/mL

Prompt: neutralization IC50 lookup needed for γ22κ3 (antibody, V domains shown) VH: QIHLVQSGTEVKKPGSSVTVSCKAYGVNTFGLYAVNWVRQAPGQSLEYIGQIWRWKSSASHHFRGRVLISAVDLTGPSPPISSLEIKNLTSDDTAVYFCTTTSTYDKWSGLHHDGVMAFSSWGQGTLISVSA VL: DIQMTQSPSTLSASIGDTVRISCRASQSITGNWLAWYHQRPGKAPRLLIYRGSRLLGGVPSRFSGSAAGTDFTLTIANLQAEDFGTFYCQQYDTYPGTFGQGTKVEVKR , thanks.
Completion: > 15 µg/mL

Prompt: neutralization IC50 lookup needed for γ46κ5 (antibody, V domains shown) VH: QIHLVQSGTEVKKPGSSVTVSCKAYGVNTFGLYAVNWVRQAPGQGLEYIGQIWRWKSSASHHFRGRVLISAVDLTGSSPPISSLEIKNVTSDDTAVYFCTTTSTYDKWSGLHHDGVVAFSSWGQGTLISVSA VL: DIQMTQSPSTLSASTGDTVRISCRASQSITGNWVAWYQQRPGKAPRLLIYRGAALLGGVPSRFRGSAAGTDFTLTIGNLQAEDFGTFYCQQYDTYPGTFGQGTKVEVKR , thanks.
Completion: > 15 µg/mL

Prompt: neutralization IC50 lookup needed for 8ANC195 IgG (antibody, V domains shown) VH: QIHLVQSGTEVKKPGSSVTVSCKAYGVNTFGLYAVNWVRQAPGQSLEYIGQIWRWKSSASHHFRGRVLISAVDLTGSSPPISSLEIKNLTSDDTAVYFCTTTSTYDKWSGLHHDGVMAFSSWGQGTLISVSA VL: DIQMTQSPSTLSASIGDTVRISCRASQSITGNWVAWYQQRPGKAPRLLIYRGAALLGGVPSRFSGSAAGTDFTLTIGNLQAEDFGTFYCQQYDTYPGTFGQGTKVEV , thanks.
Completion: > 30 µg/mL

Prompt: neutralization IC50 lookup needed for 8ANC3430 (antibody, V domains shown) VH: QIHLVQSGTEVKKPGSSVTVSCKAYGVNTFGLYAVNWVRQAPGQSLEYIGQIWRWKSSASHHFRGRVIISAVDLTGSSPPISSLEIKNLTSDDTAVYFCTTTSTSDYWSGLHHDGVMAFSSWGQGTLISVSA VL: DIQMTQSPSTLSASVGDTVRISCRASQSITGGWLAWYHQRPGKAPRLLIYRGSRLLGGVPSRFSGSAAGTDFTLTIANLQAEDFGTFYCQQYDTYPGTFGQGTKVEVKR , thanks.
Completion: > 23 µg/mL

Prompt: neutralization IC50 lookup needed for γ59κ11 (antibody, V domains shown) VH: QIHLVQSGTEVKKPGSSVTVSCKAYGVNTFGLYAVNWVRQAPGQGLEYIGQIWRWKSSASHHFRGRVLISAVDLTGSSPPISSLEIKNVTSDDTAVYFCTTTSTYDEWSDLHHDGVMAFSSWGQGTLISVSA VL: DIQMTQSPSTLSASVGGTVRISCRASQSITGGWLAWYHQRPGKAPRLLIYRGSRLLGGVPSRFSGSAAGTDFTLTIANLQAEDFGTFYCQQYDTYPGTFGQGTKVEVKR , thanks.
Completion: > 15 µg/mL

Prompt: neutralization IC50 lookup needed for γ3κ11 (antibody, V domains shown) VH: QIHLVQSGTEVKKPGSSVTVSCKAYGVNTFGLYAVSWVRQAPGQRLEYIGQIRRWKSSASHHFRGRVTVSAVDPTGSSPPISSLEIRDLTTDDTAVYFCTTTSTSDYWSGLHNERGTAFSSWGQGTLISVSA VL: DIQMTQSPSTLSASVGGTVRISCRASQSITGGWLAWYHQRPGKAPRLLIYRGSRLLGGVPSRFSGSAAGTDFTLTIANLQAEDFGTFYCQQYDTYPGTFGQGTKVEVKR , thanks.
Completion: > 15 µg/mL

Prompt: neutralization IC50 lookup needed for γ52κ5 (antibody, V domains shown) VH: QIHLVQSGTEVKKPGSSVTVSCKAYGVNTFGLYAVNWVRQAPGQSLEYIGQIWRWKSSASHHFRGRVLISAVDLTGSSPPISSLEIKNLTSDDTAVYFCTTTSTYDRWSGLHHDGVMAFSSWGQGTLISVSA VL: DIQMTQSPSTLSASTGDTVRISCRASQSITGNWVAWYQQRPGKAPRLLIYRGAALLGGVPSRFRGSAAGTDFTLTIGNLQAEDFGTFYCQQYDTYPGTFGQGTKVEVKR , thanks.
Completion: > 15 µg/mL
